pKi: −log10 of the molar value.
The reader will find pKi measurements below, all made with Proto-oncogene tyrosine-protein kinase Src (Homo sapiens, UniProt P12931).
Sequence (P12931 2-536 limits assumed): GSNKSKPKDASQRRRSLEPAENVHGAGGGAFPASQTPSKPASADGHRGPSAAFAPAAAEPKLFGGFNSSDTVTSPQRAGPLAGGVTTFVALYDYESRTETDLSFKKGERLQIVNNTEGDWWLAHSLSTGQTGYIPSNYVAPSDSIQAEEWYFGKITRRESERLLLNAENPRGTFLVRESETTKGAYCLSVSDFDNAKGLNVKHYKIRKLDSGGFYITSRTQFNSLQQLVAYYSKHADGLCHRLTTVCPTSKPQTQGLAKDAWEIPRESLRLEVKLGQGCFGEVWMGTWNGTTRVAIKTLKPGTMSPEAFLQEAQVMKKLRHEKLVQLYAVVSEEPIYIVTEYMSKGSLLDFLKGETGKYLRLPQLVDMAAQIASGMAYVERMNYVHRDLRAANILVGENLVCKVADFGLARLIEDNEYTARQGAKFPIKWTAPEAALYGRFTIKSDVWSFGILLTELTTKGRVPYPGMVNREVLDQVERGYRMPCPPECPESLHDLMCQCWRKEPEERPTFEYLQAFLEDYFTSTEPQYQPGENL

Cc1nc[nH]c1[C@@H]1c2nc[nH]c2CCN1Cc1nc2ccccc2[nH]1; > 7.00

(Q) Quick check: pKi on Proto-oncogene tyrosine-protein kinase Src (Homo sapiens, UniProt P12931), item `Cc1nc[nH]c1[C@H]1c2nc[nH]c2CCN1Cc1nc2ccccc2[nH]1` ?
(A) > 7.00

---

- Measurement target: Glycogen synthase kinase-3 (Homo sapiens, UniProt P49840+P49841)
- Protocol notes: Inhibition of GSK3 (unknown origin)
- Assay type: protein assay
Measured metric: IC50 (nM)

O=C(N=c1[nH]c2ccccc2[nH]1)NC[C@H]1CCC[C@@H](CNC(=O)N=c2[nH]c3ccccc3[nH]2)C1; 1000
CCN(CC)CCCNc1nc2ccccc2c2[nH]c3ccc(OC)cc3c12; 1000
C[n+]1c2ccccc2[n+]2[nH]c3ccccc3n12; 1000
